- assayed_system: T1, human/cynomolgus monkey ROR1 protein (Acro Biosystems, Cat. No.: RO1-H522y) (human/cynomolgus monkey, UniProt Q01973 30-403)
- T1 construct: Bought SPR analyte
- T1 sequence (Q01973 30-403 limits assumed): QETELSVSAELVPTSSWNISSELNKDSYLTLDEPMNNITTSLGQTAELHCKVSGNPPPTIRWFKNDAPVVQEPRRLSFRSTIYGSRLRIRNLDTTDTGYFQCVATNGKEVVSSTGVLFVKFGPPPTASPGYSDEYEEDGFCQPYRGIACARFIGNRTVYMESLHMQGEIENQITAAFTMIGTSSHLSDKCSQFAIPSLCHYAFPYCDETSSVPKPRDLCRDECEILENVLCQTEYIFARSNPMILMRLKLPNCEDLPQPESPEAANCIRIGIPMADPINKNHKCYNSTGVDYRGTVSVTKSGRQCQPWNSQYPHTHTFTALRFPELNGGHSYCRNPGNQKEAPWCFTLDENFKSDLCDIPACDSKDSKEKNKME
- method_description: SPR (Biacore), antibody captured on anti-hIgG CM5 chip, ROR1 protein as analyte, method of Example 5
readout_label: koff (s⁻¹)
State the answer as a number, implicitly in s⁻¹.

Some solved entries appear below for comparison.
[
  {
    "binder": "hz29H5D8-2.1 (antibody, human IgG1, kappa, V domains shown, Humanized, human IgG1/kappa) VH: QVQLVQSGAEVKKPGSSVKVSCKASGYTFTNYGISWVRQAPGQGLEWMGEIYPRSVNTYYAQKFQGRVTITADKSTSTAYMELSSLRSEDTAVYYCARHYYGSSLDYWGQGTLVTVSS VL: DIQMTQSPSSLSASVGDRVTITCITSSDIEDDMNWYQQKPGKAPKLLIYEGNSLRPGVPSRFSSSGYGTDFTFTISSLQPEDIATYYCLQSDNIFTFGQGTKVEIKR",
    "koff [s⁻¹]": 0.000925
  },
  {
    "binder": "hz29H5D8-3.1 (antibody, human IgG1, kappa, V domains shown, Humanized, human IgG1/kappa) VH: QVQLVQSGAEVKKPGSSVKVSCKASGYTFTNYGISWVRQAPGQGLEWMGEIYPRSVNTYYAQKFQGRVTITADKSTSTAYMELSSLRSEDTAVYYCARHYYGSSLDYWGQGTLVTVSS VL: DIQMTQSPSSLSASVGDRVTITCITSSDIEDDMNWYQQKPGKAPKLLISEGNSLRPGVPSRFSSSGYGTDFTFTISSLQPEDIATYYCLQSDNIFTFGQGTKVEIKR",
    "koff [s⁻¹]": 0.000218
  }
]

Then this binder:
Form: binder = hz137G11D10-3.1 (antibody, human IgG1, kappa, V domains shown, Humanized, human IgG1/kappa) VH: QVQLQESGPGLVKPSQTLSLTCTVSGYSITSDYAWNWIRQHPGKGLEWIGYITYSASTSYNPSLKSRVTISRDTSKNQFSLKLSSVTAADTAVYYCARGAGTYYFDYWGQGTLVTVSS VL: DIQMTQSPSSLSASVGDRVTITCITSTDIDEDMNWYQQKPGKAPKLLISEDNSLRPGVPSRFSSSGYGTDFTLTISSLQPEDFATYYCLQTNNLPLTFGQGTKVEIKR ; koff = 0.000492
